# Test system: enterococci
# protocol_summary: Minimum inhibitory concentration, microdilution broth method, enterococci
# Type: cell-based
# assay_context: Enterococcus faecalis, E. faecalis GC 4555; Mueller-Hinton broth, 18-22 hours at 35° C.; read-out: MIC E. faecalis GC 4555
quantity_name: log10 of MIC (log10 of the value in µg/mL)

>>> df
                          structure_notation  quantity_name  reported_value
 0  O=C1O/C(=C\c2cccc3ccccc23)C(O)=C1c1ccc2ccccc2c1   log10 of MIC            1.20
 1  COc1ccc(/C=C2\OC(=O)C(c3cc(Cl)cc(Cl)c3)=C2O)c2ccccc12   log10 of MIC            0.90
 2  O=C1O/C(=C\c2ccc(-c3ccccc3)cc2)C(O)=C1c1cccc(Cl)c1   log10 of MIC           -0.30
 3  Cc1ccc(/C=C2\OC(=O)C(c3ccc(-c4ccccc4)cc3)=C2O)s1   log10 of MIC            1.81
 4  O=C1O/C(=C\c2ccc(Cl)cc2)C(O)=C1c1ccc(-c2ccccc2)c(F)c1   log10 of MIC            0.90
 5  CC(C)(C)c1ccc(-c2ccc(C3=C(O)/C(=C/c4cc(C(F)(F)F)ccc4Cl)OC3=O)cc2)cc1   log10 of MIC            0.90
 6  O=C1O/C(=C\C2CCCCC2)C(O)=C1c1ccc2ccccc2c1   log10 of MIC            1.51
 7  N#Cc1cccc(-c2ccc(/C=C3\OC(=O)C(c4ccccc4C#N)=C3O)cc2)c1   log10 of MIC            0.90
 8  CCCc1ccc(-c2ccc(C3=C(O)/C(=C/c4cc(C(F)(F)F)ccc4Cl)OC3=O)cc2)cc1   log10 of MIC            0.60
 9  CCOc1ccc(-c2ccc(C3=C(O)/C(=C/c4ccc(Cl)c(C(F)(F)F)c4)OC3=O)cc2)cc1   log10 of MIC            1.51
10  CN(C)c1ccc(/C=C2\OC(=O)C(c3ccc(C(F)(F)F)cc3)=C2O)c2ccccc12   log10 of MIC            1.51
11  COc1ccc(C2=C(O)/C(=C/c3ccc4ccccc4c3)OC2=O)cc1   log10 of MIC            1.81
12  COc1ccccc1-c1ccc(/C=C2\OC(=O)C(c3ccc(Cl)c(Cl)c3)=C2O)cc1OC   log10 of MIC            1.20
13  COc1cc(/C=C2\OC(=O)C(c3cc(Cl)cc(Cl)c3)=C2O)ccc1-c1ccccc1C(F)(F)F   log10 of MIC            0.30
14  O=C1O/C(=C\c2ccc(C(F)(F)F)cc2)C(O)=C1c1ccc(-c2ccccc2)cc1   log10 of MIC            0.90
